These entries and their values trace back to patent US7816400B2.

- system_under_test: IKur (Homo sapiens)
- Construct: endogenous in cells
- Sequence (P22460 whole entry): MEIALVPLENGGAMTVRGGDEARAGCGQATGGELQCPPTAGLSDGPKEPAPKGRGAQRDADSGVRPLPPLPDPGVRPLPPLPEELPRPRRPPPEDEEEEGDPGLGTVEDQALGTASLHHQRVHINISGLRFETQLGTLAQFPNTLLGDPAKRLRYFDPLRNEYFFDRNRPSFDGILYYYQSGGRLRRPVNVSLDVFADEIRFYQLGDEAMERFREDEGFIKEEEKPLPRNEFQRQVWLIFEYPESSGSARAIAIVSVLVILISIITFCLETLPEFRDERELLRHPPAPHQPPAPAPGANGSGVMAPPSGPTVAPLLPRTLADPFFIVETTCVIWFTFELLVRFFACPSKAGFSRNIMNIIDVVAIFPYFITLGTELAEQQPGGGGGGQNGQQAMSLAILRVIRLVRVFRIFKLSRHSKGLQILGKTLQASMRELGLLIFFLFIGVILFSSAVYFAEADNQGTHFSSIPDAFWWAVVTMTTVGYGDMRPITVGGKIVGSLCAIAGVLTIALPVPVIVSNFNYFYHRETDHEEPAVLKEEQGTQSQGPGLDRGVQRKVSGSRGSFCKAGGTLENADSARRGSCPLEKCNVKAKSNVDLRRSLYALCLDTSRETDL
- run_description: IKur in human atrial myocytes, whole-cell patch clamp
- condition_info: human atrial myocytes, +40 mV, 0.3 to 100 μM, Hill equation fit; read-out: IC50 for inhibiting IKur

| compound | system_under_test | IC50, µM |
| --- | --- | --- |
| COc1ccc(-c2cc(=O)c3c(O)cc(O)cc3o2)cc1 [Acacetin, 5,7-dihydroxy-4′-methoxyflavone] | IKur (Homo sapiens) | 3.2 |

* * *

- system_under_test: Kv1.5 (Homo sapiens, UniProt P22460)
- Construct: expressed in transfected cells
- run_description: Kv1.5 channel block in stably expressing HEK 293 cells
- Assay type: cell-based
- condition_info: HEK 293 cells stably expressing Kv1.5, Table 3; read-out: Kv1.5 (IC50)
pIC50: −log10 of the molar value.
property_name: pIC50

| compound | bound_operator | quantitative_readout |
| --- | --- | --- |
| COc1ccc(-c2cc(=O)c3cc(C)ccc3o2)cc1 | = | 4.86 |
| Oc1cc(O)c2c(c1)O[C@H](c1ccc(O)c(O)c1)[C@@H](O)C2 | < | 4.00 |
| COc1ccc(C(=O)Oc2cc(O)cc3oc(-c4ccc(OC)cc4)cc(=O)c23)cc1 | = | 5.69 |
| COc1ccc(-c2cc(=O)c3ccccc3o2)cc1 | = | 5.05 |
| COc1ccc(-c2cc(=O)c3cc(Cl)ccc3o2)cc1 | = | 4.63 |
| COc1ccc(-c2cc(=O)c3c(O)cc(O)cc3o2)cc1 [Acacetin, 5,7-dihydroxy-4′-methoxyflavone] | = | 5.47 |
| O=c1cc(-c2ccccc2)oc2cc(O)c(O)c(O)c12 | < | 4.00 |

* * *

pIC50: −log10 of the molar value.
Parameter 'readout' = pIC50; parameter 'system' = hERG channels (Homo sapiens).
Sequence (Q12809 whole entry): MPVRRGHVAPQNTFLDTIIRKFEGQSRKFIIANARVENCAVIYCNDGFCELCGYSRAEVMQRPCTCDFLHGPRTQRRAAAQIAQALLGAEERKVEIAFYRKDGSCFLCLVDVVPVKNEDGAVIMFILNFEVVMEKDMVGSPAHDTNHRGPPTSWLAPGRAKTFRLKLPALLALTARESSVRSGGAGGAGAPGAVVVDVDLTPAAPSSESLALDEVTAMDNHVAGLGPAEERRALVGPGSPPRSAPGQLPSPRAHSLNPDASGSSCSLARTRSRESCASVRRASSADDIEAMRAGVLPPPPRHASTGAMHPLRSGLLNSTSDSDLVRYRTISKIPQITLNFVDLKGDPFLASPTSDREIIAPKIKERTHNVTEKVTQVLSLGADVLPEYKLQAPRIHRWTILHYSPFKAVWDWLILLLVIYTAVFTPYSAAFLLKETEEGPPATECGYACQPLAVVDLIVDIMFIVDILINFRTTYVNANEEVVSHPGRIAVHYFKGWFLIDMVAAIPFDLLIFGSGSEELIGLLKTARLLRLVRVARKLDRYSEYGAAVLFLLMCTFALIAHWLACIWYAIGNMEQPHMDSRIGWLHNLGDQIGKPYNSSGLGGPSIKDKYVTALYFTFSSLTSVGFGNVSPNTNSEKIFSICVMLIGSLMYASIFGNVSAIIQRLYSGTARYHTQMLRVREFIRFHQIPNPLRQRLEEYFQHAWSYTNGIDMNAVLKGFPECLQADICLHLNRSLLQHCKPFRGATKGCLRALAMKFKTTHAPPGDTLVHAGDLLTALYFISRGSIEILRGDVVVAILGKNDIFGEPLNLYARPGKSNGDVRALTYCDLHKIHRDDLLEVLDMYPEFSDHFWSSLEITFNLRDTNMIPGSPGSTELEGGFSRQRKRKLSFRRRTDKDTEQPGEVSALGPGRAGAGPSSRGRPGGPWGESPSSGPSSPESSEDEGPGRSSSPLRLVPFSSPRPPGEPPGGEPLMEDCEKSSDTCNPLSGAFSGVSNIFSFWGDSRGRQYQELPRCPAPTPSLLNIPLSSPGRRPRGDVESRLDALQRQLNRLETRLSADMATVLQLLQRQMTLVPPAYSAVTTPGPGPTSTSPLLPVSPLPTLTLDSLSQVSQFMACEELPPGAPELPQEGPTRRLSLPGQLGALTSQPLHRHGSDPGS
property_name: pIC50

| compound | bound_operator | quantitative_readout |
| --- | --- | --- |
| COc1ccc(-c2cc(=O)c3c(O)cc(O)cc3o2)cc1 [Acacetin, 5,7-dihydroxy-4′-methoxyflavone] | = | 4.49 |
| COc1ccc(-c2cc(=O)c3cc(Cl)ccc3o2)cc1 | = | 4.89 |
| CC1OC(OCC2OC(Oc3c(-c4ccc(O)c(O)c4)oc4cc(O)cc(O)c4c3=O)C(O)C(O)C2O)C(O)C(O)C1O (stereo not drawn) | < | 4.00 |
| O=c1cc(-c2ccccc2)oc2cc(O)c(O)c(O)c12 | < | 4.00 |
| COc1ccc(C(=O)Oc2cc(O)cc3oc(-c4ccc(OC)cc4)cc(=O)c23)cc1 | = | 5.39 |
| Oc1cc(O)c2c(c1)O[C@H](c1ccc(O)c(O)c1)[C@@H](O)C2 | < | 4.00 |
